Test system: MDA-MB-231 breast
Assay: NCI tumour cell line growth inhibition, 48 h; in the data active = GI50 below about 0.43 µM; inactive = the rest
Possible outcomes: active, inactive

>>> df
                                    compound  assigned_label
 0                  O=C(O)C[O][Sb][O]CC(=O)O        inactive
 1          ICCC(c1ccccc1)(c1ccccc1)c1ccccc1        inactive
 2  CC1(C)N=C(N)N=C(N)N1c1cccc(CCCCc2ccccc2)c1        inactive
 3  Cc1ccc2c(Nc3cccc(Cl)c3F)ncc(NC(=O)c3csc4c(N)ncnc34)c2c1          active
 4  CCN(C(=O)CCl)C(C)(C)C(SSSC(c1ccc(Cl)cc1)C(C)(C)N(CC)C(=O)CCl)c1ccc(Cl)cc1 (stereo not drawn)        inactive
 5  COc1ccc2[nH]c(=O)c(/C=C/C(=O)/C=C/c3ccc(O)c(OC)c3)cc2c1        inactive
 6  CC1(C)CC(=O)c2c(ccc(C(=O)C[C@H](N)CO)c2N)O1        inactive
 7  Nc1c(C(=O)c2cccc(CCC3(O)CCCC3)c2)cnn1-c1ccc(F)cc1        inactive
 8  Nc1ncnc2c(C3OC(CO)C(O)C3O)[nH]nc12 (stereo not drawn)          active
 9      COc1cc(Cn2ccc3c2-c2oncc2CC3)cc(OC)c1        inactive
10            O=C1c2ccccc2-c2n[nH]c3cccc1c23        inactive
11     COc1cc2ccnc3c2c(c1OC)-c1ccc(=O)ccc1-3        inactive
12  O=C(Nc1ccccc1)NS(=O)(=O)c1ccc(N2N=C3c4ccccc4CC3C2c2ccccn2)cc1 (stereo not drawn)        inactive

---

Reported TGI values are given for each entry in this list.
Tested on: MDA-MB-231 breast
Experiment: NCI tumour cell line growth inhibition, 48 h

COMPOUND	BOUND_OPERATOR	TGI / µM
Nc1ccc(Nc2c3ccccc3nc3ccccc23)cc1	>	10
COc1cc2ccnc3c2c(c1OC)-c1ccc(=O)ccc1-3	>	100
O=C(Nc1sccc1S(=O)(=O)c1ccc(Cl)cc1)C(F)(F)F	=	37.3
CC1(c2nc3ccccc3[nH]2)CCC(C(N)=O)C(C)(C)O1 (stereo not given)	>	100
Nc1ncnc2c(C3OC(CO)C(O)C3O)[nH]nc12 (stereo not given)	=	0.0705
CC1(C)CC(OCCCC[P+](c2ccccc2)(c2ccccc2)c2ccccc2)CC(C)(C)N1O	=	0.832
O=C(NCCNCCNCCNC(=O)c1cc(-c2ccccc2)nc2ccccc12)c1cc(-c2ccccc2)nc2ccccc12	=	7.57
CCOC(CI)O[C@@H]1C=C[C@H](OC(C)=O)C1 (stereo not given in full)	>	100
ICCC(c1ccccc1)(c1ccccc1)c1ccccc1	=	19.8
OCc1ccc2c(c1)CC1(C2)Cc2cc3c(cc2C1)CCC3	>	100
COc1ccc(CC2c3cc(OC)c(OC)c(OC)c3CC[N+]2(C)C)cc1Oc1ccc(CC2c3cc4c(c(OC)c3CCN2C)OCO4)cc1 (stereo not given)	>	100
Cc1nc(-c2cc3c(ccc4ccccc43)oc2=O)cc2c1c(=O)oc1ccc3ccccc3c12	>	100
Nc1ccc2cc3[nH]c4cc(N)ccc4c3nc2c1	=	2.09
CC#Cc1cc2c(cc1O)CC[C@@H]1[C@@H]2CC[C@]2(C)[C@@H](O)CC[C@@H]12	=	46.2
COc1ccc2[nH]c(=O)c(/C=C/C(=O)/C=C/c3ccc(O)c(OC)c3)cc2c1	=	3.78
C[C@H]1[C@H](C)CC[C@]2(C(=O)O)CC[C@]3(C)C(=CC[C@@H]4[C@@]5(C)CC[C@H](OC(=O)/C=C/c6ccc(O)cc6)C(C)(C)[C@@H]5CC[C@]43C)[C@H]12	=	18.3
ClC1=NC(Cl)C(Cl)=N/C1=N\c1ncn[nH]1 (stereo not given)	=	3.55
O=C1c2cc3c(cc2[C@@H]2[C@H]1c1ccc([N+](=O)[O-])cc1C(=O)N2CCCCl)OCO3	=	2.38
CC(C)Oc1ccc(CNC2=NCCO2)c2ccccc12	=	28.9
Cc1ccc2c(Nc3cccc(Cl)c3F)ncc(NC(=O)c3csc4c(N)ncnc34)c2c1	>	94

---

Test system: SN12C renal
Assay: NCI tumour cell line growth inhibition, 48 h; in the data active = GI50 below about 0.43 µM; inactive = the rest
Outcome codes: TRUE (active), FALSE (inactive)

In [3]: df
Out[3]:
                                   compound  assigned_label
0  Fc1ccc(-c2nnc3sc(COc4ccccc4Cl)nn23)cc1Cl           FALSE
1  CC(=O)O[C@H]1CC[C@]2(C)[C@H]3CC=C4[C@@H]5CC(C)(C)CC[C@]5(C(=O)NCCNCCN)CC[C@@]4(C)[C@]3(C)CC[C@H]2C1(C)C           FALSE
2     COc1cc2ccnc3c2c(c1OC)-c1ccc(=O)ccc1-3           FALSE
3          ICCC(c1ccccc1)(c1ccccc1)c1ccccc1           FALSE
4  C[C@]12CCC3c4ccc(O)cc4CCC3C1Cc1ccc(O)cc12 (stereo not given in full)           FALSE
5  Nc1ncnc2c(C3OC(CO)C(O)C3O)[nH]nc12 (stereo not given)            TRUE
6  CN(C)C(=O)c1cc2cnc(Nc3ccc(-c4csc5c(=O)cc(N6CCNCC6)oc45)cc3)nc2n1C1CCCC1           FALSE
7    COc1cc2nc(N3CCCC3)nc(Nc3ccccc3)c2cc1OC           FALSE
8  N#Cc1cccc(/C=C(/C(=O)c2ccccc2)c2ccccc2)c1           FALSE
9  COc1ccc(OC)c(C#Cc2ccc(OC)c(C(=O)NCCc3ccc(F)cc3)c2)c1           FALSE

---

Test system: DU-145 prostate
Assay: NCI tumour cell line growth inhibition, 48 h
PARAMETER: GI50

COMPOUND	PARAMETER	RESULT
Nc1c(C(=O)c2cccc(CCC3(O)CCCC3)c2)cnn1-c1ccc(F)cc1	GI50	> 21.1 µM
C[C@H]1[C@H](C)CC[C@]2(C(=O)O)CC[C@]3(C)C(=CC[C@@H]4[C@@]5(C)CC[C@H](OC(=O)/C=C/c6ccc(O)cc6)C(C)(C)[C@@H]5CC[C@]43C)[C@H]12	GI50	2.32 µM
CO/N=C(/COc1c(-c2ccccc2)oc2ccccc2c1=O)c1ccc(OC)cc1	GI50	> 100 µM
CC[C@H](C)[C@H](NC(=O)Nc1ccccc1)C(=O)N(C)[C@H](C[C@@H](OC(C)=O)c1nc(C(=O)N[C@@H](Cc2ccccc2)C[C@H](C)C(=O)OC)cs1)C(C)C	GI50	3.94 µM
O=C(NC(=S)NNC(=S)NNc1ccccc1)c1ccccc1	GI50	44.1 µM
COc1ccc(OC)c(C#Cc2ccc(OC)c(C(=O)NCCc3ccc(F)cc3)c2)c1	GI50	> 100 µM
O=C(Nc1ccccc1)NS(=O)(=O)c1ccc(N2N=C3c4ccccc4CC3C2c2ccccn2)cc1 (configuration not stated)	GI50	36.2 µM

---

Test system: U251 CNS
Possible outcomes: y for active, n for inactive

>>> df
                              smiles_string  assigned_label
0  Cc1ncc(C(=O)Nc2ccc(CN3CCN(C)CC3)c(C(F)(F)F)c2)cc1C#Cc1cnc(N)c2ncccc12               n
1  Cc1ccc2c(Nc3cccc(Cl)c3F)ncc(NC(=O)c3csc4c(N)ncnc34)c2c1               n
2  O=c1oc2ccc(Cl)cc2c(=O)n1-c1cc(C(F)(F)F)cc(C(F)(F)F)c1               y

---

Property: TGI; scope: individual compounds
Tested on: DLD-1 colon
Experiment: NCI tumour cell line growth inhibition, 48 h
PARAMETER: TGI

>>> df
                                    compound  parameter    result
 0  Cc1ccc(C2(O)CC(c3ccc([N+](=O)[O-])o3)=NN2C(=O)COc2ccccc2Cl)cc1 (stereo not given)        TGI  > 100 µM
 1  Cc1c(C(=O)/C=C/c2ccccc2Cl)[n+](=O)c2ccccc2n1[O-]        TGI   19.8 µM
 2  COc1cc(/C=C/c2ccc(OC(C)=O)cc2)cc(OC)c1OC        TGI  > 100 µM
 3  CCC[CH2][Ge]([CH2]CCC)([CH2]CCC)[O]C(=O)C(OC)c1ccccc1 (stereo not given)        TGI  > 100 µM
 4     Nc1ccc2c(c1)CC1c3ccccc3C(C2)c2ccccc21        TGI  > 100 µM
 5       NC(=S)NNC(=O)CCC(=O)Nc1ccc(Cl)cc1Cl        TGI  > 100 µM
 6  Cc1ccc(NC(=O)CC/C(CC(=O)c2ccc(F)cc2)=N\NC(=O)C(=O)NN)cc1C        TGI  > 100 µM
 7                  O=C(O)C1=NNC(C(=O)O)=NN1        TGI  > 100 µM
 8  CC1=C(C(=O)CC(=O)C(=O)Nc2ccccc2)Sc2ccccc2N1        TGI  > 100 µM
 9  COc1cc(C)c2c(=O)c3c(oc2c1)C(=O)c1c(O)c(OC)cc(O)c1C3=O        TGI   10.1 µM
10  CC(=O)OCC1OC(n2c(=O)n(-c3ccccc3)c(=O)c3cc(Br)cc(Br)c32)C(OC(C)=O)C(OC(C)=O)C1OC(C)=O (stereo not given)        TGI  > 100 µM
11           Nc1nc(N)c(N=O)c(Nc2ccc(I)cc2)n1        TGI   21.6 µM
12  CCC1(C(=O)OC)CCc2c(OC)ccc(OC)c2C1=O (stereo not given)        TGI  > 100 µM
13            N#CCN1CCOCCOCCN(CC#N)CCOCCOCC1        TGI  > 100 µM
14                              O=C(O)CCCCCO        TGI  > 100 µM
